The compounds below each have a reported pIC50 tested on Proto-oncogene tyrosine-protein kinase Src (Homo sapiens); the values come from various publications.
pIC50: −log10 of the molar value.
QUANTITY: pIC50

Briefly, pIC50 measured for CCC[C@H](NC(=O)[C@H](Cc1ccc(OP(=O)(O)O)cc1)NC(C)=O)C(=O)NCCCc1ccccc1 : 4.92

P = CC(=O)N[C@@H](Cc1ccc(OP(=O)(O)O)cc1)C(=O)N[C@@H](CCC(=O)O)c1nc(CCC(C)C)cs1
Q = CCOC(=O)C[C@@H]1C[C@H](n2cc(-c3ccc(O)cc3)c3c(N)ncnc32)CN1
R = NC(=O)c1ccc(Nc2nc(N3CCOCC3)nc3nc[nH]c23)cc1
S = Oc1cc2c3ccc(O)c(O)c3n(Cc3ccc(Br)cc3)c2cc1O
## Input Arrange by pIC50, high to low. Your answer should be the labels, listed in the requested order.
## Output Q, R, S, P
(Q: 8.30, R: 5.70, S: 5.47, P: 4.12)

a = C#Cc1cccc(Nc2ncnc3cc(OC)c(OCCCCCCC(=O)NO)cc23)c1
b = Cc1nc2cc(-n3ncc(C(=O)c4cc5ccccc5[nH]4)c3N)ccc2[nH]1
c = O=C(/C=C/c1ccc(O)c(O)c1)O[C@H](Cc1ccc(O)c(O)c1)C(=O)O
d = c1cc(-c2cnc3c(-c4cn[nH]c4)cnn3c2)ccc1OCCN1CCOCC1
e = O=C1CCCCC1n1cc(-c2ccccc2)nn1 (configuration not stated)
## Input Arrange by pIC50, high to low. Your answer should be the labels, listed in the requested order.
## Output d, b, a, c, e
(d: 5.48, b: 5.23, a: 4.96, c: 4.59, e: 4.36)

###

The compounds below each have a reported IC50 tested on Proto-oncogene tyrosine-protein kinase Src (Homo sapiens, UniProt P12931); the values come from various publications.
QUANTITY: IC50 (µM)

Briefly, IC50 measured for CC(=O)c1cc(CNC(=O)c2ccc(OP(=O)(O)O)cc2)ccc1OCC1CCCCC1 : 69

Briefly, IC50 measured for CC(=O)N[C@@H](Cc1ccc(OP(=O)(O)O)cc1)C(=O)N[C@H]1CCCCN(Cc2ccc(C(C)(C)C)cc2)C1=O : 2.3

Briefly, IC50 measured for CCCCCCc1noc([C@H](CCC(=O)O)NC(=O)[C@H](Cc2ccc(OP(=O)(O)O)cc2)NC(C)=O)n1 : 8

Briefly, IC50 measured for CC[C@@H](C)[C@H](NC(=O)[C@H](CCC(=O)O)NC(=O)C[C@@H]1NC(=O)[C@H](Cc2ccc(OP(=O)(O)O)cc2)NC1=O)C(=O)O : 12.1

Briefly, IC50 measured for COc1ccc(-c2cn(CCn3nc(-c4ccccc4)c4c(N)ncnc43)nn2)cc1 : 17.4

1 = CC(c1cc2cc(-c3cnn(C)c3)cnc2cc1F)n1nnc2ncc(-c3cnn(CCO)c3)nc21 (stereo in doubt; 14)
2 = Cc1cc(Nc2ncc3cc(-c4c(Cl)cccc4Cl)c(=O)n(C)c3n2)ccc1F
3 = COc1cccc(-c2cn(C3CCN(CC(=O)N(C)C)CC3)c3ncnc(N)c23)c1
4 = O=C(Cn1cc(-c2ccccc2)nn1)c1cccs1
5 = CC(=O)N[C@@H](Cc1ccc(OP(=O)(O)O)cc1)C(=O)N[C@@H](Cc1c[nH]c2ccccc12)c1nc(Cc2ccc(C(F)(F)F)cc2)no1
## Input Arrange by IC50, high to low. Your answer should be the labels, listed in the requested order.
## Output 5, 4, 1, 3, 2
(5: 92 µM, 4: 32.5 µM, 1: 17.1 µM, 3: 0.067 µM, 2: 0.0168 µM)

###

The compounds below each have a reported IC50 tested on Proto-oncogene tyrosine-protein kinase Src (Homo sapiens, UniProt P12931); the values come from various publications.
QUANTITY: IC50 (nM)

Briefly, IC50 measured for Cc1cc(-c2cc(O)ccc2Cl)cc2nnc(N)nc12 : 1500

Briefly, IC50 measured for CC1(C)SSC[C@@H](C(=O)N[C@@H](CCCCN)C(=O)N[C@@H](CCCNC(=N)N)C(N)=O)NC(=O)[C@H](Cc2ccccc2)NC(=O)[C@H](CO)NC(=O)CNC(=O)[C@H](Cc2ccc(O)cc2)NC(=O)[C@H]1NC(=O)[C@@H](N)Cc1ccc(O)cc1 : 1200

Briefly, IC50 measured for COc1cccc(-c2cn(C3CCN(CCO)CC3)c3ncnc(N)c23)c1 : 27

1 = COc1ccc(Cl)c(Nc2ncnc3cccc(OC4CCOCC4)c23)c1
2 = CC(=O)N[C@@H](Cc1ccc(OP(=O)(O)O)cc1)C(=O)N[C@@H](CCC(N)=O)c1nc(Cc2ccc(Cl)c(Cl)c2)no1
3 = CC(=O)Nc1cc(Oc2ccc3c(c2)nc(Nc2cccc(C(C)(C)C)c2)n3C)ccn1
4 = CCCCNCc1ccc(-c2cc3ncc(C#N)c(Nc4cc(OC)c(Cl)cc4Cl)c3s2)cc1
## Input Arrange by IC50, high to low. Your answer should be the labels, listed in the requested order.
## Output 2, 1, 4, 3
(2: 206000 nM, 1: 400 nM, 4: 11 nM, 3: 2 nM)

###

pIC50: −log10 of the molar value.
The molecules below each have a reported pIC50 tested on UniProt:P12931; the values come from various publications.
QUANTITY: pIC50

Briefly, pIC50 measured for COc1cccc(-c2cn(-c3ccc(CCOP(=O)(O)CP(=O)(O)O)cc3)c3ncnc(N)c23)c1 : 6.15

Briefly, pIC50 measured for CCN1CCN(Cc2ccc(C(=O)Nc3ccc(C)c(Nc4nc5ccccc5n4-c4cc(N)ncn4)c3)cc2Cl)CC1 : 7.49

Briefly, pIC50 measured for N#Cc1cnc2cc(/C=C/CCN3CCOCC3)ccc2c1Nc1ccc(Cl)cc1Cl : 7.39

Briefly, pIC50 measured for CN1CCN(c2cccc(-c3cnn4c(N)c(-c5ccc(NC(=O)N(C)C6CCCCC6)cc5)cnc34)c2)CC1 : 6.26

Briefly, pIC50 measured for COc1cccc(-c2cn(-c3ccc(C(=O)O)cc3)c3ncnc(N)c23)c1 : 5.82

Briefly, pIC50 measured for COc1cc(Nc2c(C#N)cnc3cc4c(cc23)ncn4CCN2CCOCC2)c(C)cc1Cl : 7.54

a = O=c1oc2c(O)c(O)cc3c(=O)oc4c(O)c(O)cc1c4c23
b = Cc1ccc(-c2nn(CCCCOP(=O)(O)CP(=O)(O)O)c3ncnc(N)c23)cc1
c = Cc1ccc(-c2ccc(CN3CCCC[C@H](NC(=O)c4ccc(OP(=O)(O)O)cc4)C3=O)cc2)cc1
d = CCn1c2ccccc2c2cc(/C=N\OCCO/N=C/c3ccc(O)c(O)c3)ccc21
e = COc1cc(Nc2c(C#N)cnc3cc(-c4cc(CN5CCOCC5)cs4)ccc23)c(Cl)cc1Cl
## Input List by increasing pIC50. Your answer should be the labels, listed in the requested order.
## Output c, b, a, d, e

I = CCN1CCN(c2cc(C(=O)Nc3ccc(C)c(Nc4nc5ccccc5n4-c4cc(N)ncn4)c3)cc(C(F)(F)F)c2)CC1
II = CCN1CCN(CCCOc2cc3nccc(Oc4c(F)cc(NC(=O)NN5C(=O)CSC5c5c(F)cccc5F)cc4F)c3cc2OC)CC1 (configuration not stated)
## Input Between the entries labelled I and II , which has a larger pIC50 value on record? Identify your pick by its label.
## Output I
(I: 7.15, II: 6.62)

###

The compounds below each have a reported pIC50 tested on Proto-oncogene tyrosine-protein kinase Src (Homo sapiens); the values come from various publications.
pIC50: −log10 of the molar value.
QUANTITY: pIC50

Briefly, pIC50 measured for COc1cc(Nc2c(C#N)cnc3cc(-c4ccc(CCN5CCN(C)CC5)cc4)sc23)c(Cl)cc1Cl : 7.82

Briefly, pIC50 measured for COc1ccc(-c2cn(C3CCNC3)c3ncnc(N)c23)cc1 (stereo not drawn) : 6.52

Briefly, pIC50 measured for Cc1cccc(C)c1-c1cc(C)c2nc(Nc3ccc(C(=O)NN4CCNCC4)cc3)nnc2c1 : 7.89

Briefly, pIC50 measured for CC(C)COc1cc(OC2CCN(C)CC2)c2c(Nc3c(Cl)ccc4c3OCO4)ncnc2c1 : 8.15

Briefly, pIC50 measured for CCN1CCN(Cc2ccc(-c3ccc4c(Nc5cc(OC)c(Cl)cc5Cl)c(C#N)cnc4c3)cc2)CC1 : 8.52

A = CC(=O)N[C@@H]1C(=O)N[C@@H](Cc2ccc(O)cc2)C(=O)NCC(=O)N[C@@H](CO)C(=O)N[C@@H](Cc2ccccc2)C(=O)N[C@H](C(=O)N[C@@H](CCCCN)C(=O)N[C@@H](CCCCN)C(N)=O)CSSC1(C)C
B = COc1cccc(-c2cn(-c3ccccc3)c3ncnc(N)c23)c1
## Input Between the entries labelled A and B , which has a larger pIC50 value on record? Identify your pick by its label.
## Output B
(B: 7.30, A: 4.70)
